The reported measurements were obtained from PubChem BioAssay (NCI).

The reader will find reported growth values listed item by item below.
tested on: K-562 leukemia; experiment: NCI-60 one-dose screen, 48 h (100 = growth as untreated, 0 = no growth, -100 = all killed); details: 10 µM unless noted
About 83,000 compounds went through this panel and 20% of them were active in at least one assay; those are over-represented in the sample as a whole.
Numeric only. Scale: %

The examples below pair each entry with its known result.
# compound, observable, val
rows = [
    ("CC/C(=C(/c1ccc(Cl)cc1)c1ccc(OCCN2CCOCC2)cc1)c1ccccc1", "growth", 63.7),
    ("CN(Cc1ccccc1)c1nc(Cl)c(C2CC(c3ccc(F)cc3)=NN2C=O)s1 (configuration not stated)", "growth", 77.9),
    ("O=C1/C(=C/c2ccc(F)c(F)c2)CN(C(=O)C(Cl)Cl)C/C1=C\\c1ccc(F)c(F)c1", "growth", -19.4),
]

# returns recorded growth (system: K-562 leukemia) for `COc1cc(Cl)cc(-c2nn(C(=O)NS(=O)(=O)c3ccc(Cl)cc3)cc2-c2ccncc2)c1`
82.2

###

test system: NCI-H226 lung; test: NCI-60 one-dose screen, 48 h; conditions: 10 µM unless noted
This is part of a sample that, as a whole, favours compounds with a hit. Of some 83,000 tested, about 20% had one in any assay. Activity calls are given as the source filed them. How the source made its calls: active means growth percent below 10; inactive means the rest.
Response enum: TRUE (active), FALSE (inactive)

Just curious, what result did `Nc1n[nH]c2cccc(C#Cc3cccc(C(=O)Nc4ccc(CN5CCOCC5)c(C(F)(F)F)c4)c3)c12` get here?
FALSE

Can you handle `CN1CCN(Cc2ccc(NC(=O)c3nc4ccc5[nH]ncc5c4c4c3CCCC4)cc2C(F)(F)F)CC1` next?
FALSE

Can you handle `CC/C=C\C/C=C\C[C@H](O)C/C=C1/C(=O)C=C[C@@H]1C/C=C\CCCC(=O)OC` next?
TRUE

Can you handle `COc1ccc(-c2nnc3n(C)c(=O)c4ccccc4n23)cc1O` next?
FALSE

Can you handle `CCOC(=O)c1cnn(-c2ccc(S(N)(=O)=O)cc2)c1N` next?
FALSE

Can you handle `Cc1ccc(-c2nc(C#N)c(S(=O)(=O)N(C)C)o2)cc1` next?
FALSE

Can you handle `OCc1cc(CN2CCCCC2)c(O)c2ncccc12` next?
FALSE

Can you handle `CCOC(=O)c1cc2c(n1Cc1cc(OC)cc(OC)c1Br)-c1nc(NC(C)=O)sc1CCC2` next?
FALSE

Can you handle `O=C1/C(=C/c2ccccc2)CN(C(=O)C(Cl)Cl)C/C1=C\c1ccccc1` next?
FALSE

###

test system: OVCAR-4 ovarian; assay: NCI-60 one-dose screen, 48 h (100 = growth as untreated, 0 = no growth, -100 = all killed); settings: 10 µM unless noted
The panel holds about 83,000 compounds, 20% with a hit somewhere; the sample as a whole holds those more often.
observable: growth (%)
Numeric only. Scale: %

The examples below pair each entry with its known result.
# molecule, growth / %
data = [
    ("Cn1cc(-c2csc(-c3c[nH]c4ccc(F)cc34)n2)c2cnccc21", 10.9),
    ("Cc1nc2sc(C(=O)Nc3cccc4ncccc34)c(N)c2cc1C(C)O (centres undefined)", 91.3),
    ("NC1=CC(=O)c2cccnc2C1=O", -84.5),
]

# returns recorded growth (system: OVCAR-4 ovarian) for `COc1ccc(-c2cc(-c3cc(OC)c(OC)c(OC)c3)c(C#N)c(=O)n2CCCCC(=O)O)cc1`
91.5

Can you handle `Oc1ccccc1C=Nc1ccc(N2CCN(c3ccccc3)CC2)cc1` next?
91

Can you handle `Cc1ccc(-c2nc3nc(-c4ccccc4)nc(N4CCCNCC4)c3o2)cc1` next?
-52.3

Can you handle `COC(=O)c1c2c(c(C)[n+]([O-])c1C)C(=O)C(NCCN1CCOCC1)=CC2=O` next?
35.4

Can you handle COc1ccc2c(c1)CCNC21C(=O)Nc2c(Br)cc(Br)cc21 (centres undefined) next?
95.2

Can you handle CCCCCO/N=C\c1c2c(O)c3c(O)c(C)c4c(c3c1O)C(=O)C(C)(O/C=C\C(OC)C(C)C(OC(C)=O)C(C)C(O)C(C)C(O)C(C)/C=C\C=C(\C)C(=O)N2)O4 (centres undefined) next?
30.3

Can you handle `COC(=O)c1nc(-c2ccc(C)cc2)oc1S(=O)(=O)c1ccc(Cl)cc1` next?
100

Can you handle `C=C(CN1CC=CCC1)[C@@H]1CC[C@]2(COC(C)=O)CC[C@]3(C)[C@H](CC[C@@H]4[C@@]5(C)CC[C@H](O)C(C)(C)[C@@H]5CC[C@]43C)[C@@H]12` next?
92.2

Can you handle `COc1c(NC=O)c2c(c([N+](=O)[O-])c1OC)C(=O)OC2` next?
103

Can you handle `Nc1ncc(-c2ccc3ncnc(N4CCc5ccc(Cl)cc54)c3c2)cc1C(F)(F)F` next?
8.43

Can you handle `Cn1cc(-c2nonc2-c2cn(C)c3ccc(Br)cc23)c2ccccc21` next?
55.5

Can you handle `Cc1ccc(-c2nc3nc(-c4ccc(Br)cc4)nc(N4CCCNCC4)c3o2)cc1` next?
-94.2

Can you handle O=C(/C=C/C12c3ccccc3C(c3ccccc31)C1C(=O)NC(=O)C12)c1ccncc1 (centres undefined) next?
31.8

Can you handle CC(Sc1ccccc1)C(=O)O (centres undefined) next?
102

Can you handle `COC(=O)/C=C1/SC(=Nc2ccc([N+](=O)[O-])cc2)N(CCc2c[nH]c3ccccc23)C1=O` next?
66.2

Can you handle `C=CCNC(=O)Cc1c(-c2ccc(OC)cc2)oc2c(OC)c3c(c(OC)c12)OCO3` next?
102

###

system: UACC-257 melanoma; assay: NCI-60 one-dose screen, 48 h; details: 10 µM unless noted
About 83,000 compounds went through this panel and 20% of them were active in at least one assay; those are over-represented in the sample as a whole. Active and inactive are the calls of the source. The calls were made as follows: active = growth percent below 10; inactive = the rest.
Response enum: yes = active, no = inactive

# compound, labelClass
rows = [
    ("COc1c(O)c(O)cc2c3c(oc12)CC(c1ccc2c(c1)OCO2)CC3=O (configuration not stated)", "no"),
    ("CC(=O)c1c(C)nc(SCC(=O)Nc2ccc(Cl)cc2)n1-c1ccc(Cl)cc1", "no"),
    ("Brc1ccc(/C=C(/C2=NCCN2)n2ccc3ccccc32)cc1", "no"),
    ("Cc1nn(-c2nc(-c3cc4ccccc4oc3=O)cs2)c(C)c1N=Nc1ccccc1", "no"),
    ("CN1CCN(C(=O)OCc2nc3c(N4CCOCC4)nc(Cl)nc3n2C)CC1", "yes"),
    ("COc1cc(CNC(=O)CCCC/C=C/C(C)C)ccc1OCc1cn(-c2ccc([N+](=O)[O-])cc2)nn1", "no"),
    ("COC1=CC(c2ccc[nH]2)=N/C1=C\\c1[nH]c(C)c(C(=O)Oc2ccccc2)c1C", "yes"),
    ("c1ccc(Cc2cccc[n+]2C(c2ccccc2)c2ccccc2)cc1", "yes"),
    ("O=C(NNc1ccccc1)c1ncc[nH]1", "no"),
    ("Cn1cc(-c2nonc2-c2cn(C)c3ccc(Br)cc23)c2ccccc21", "no"),
]

Just curious, what result did `COc1ccc(-c2csc(NC(=O)CN3CCN(CCO)CC3)n2)cc1NS(=O)(=O)c1cccc2c(N(C)C)cccc12` get here?
no

###

test system: RXF 393 renal; assay: NCI-60 one-dose screen, 48 h (100 = growth as untreated, 0 = no growth, -100 = all killed); details: 10 µM unless noted
Compounds without any hit were thinned out: in the full panel of roughly 83,000, 20% have a hit.
observable: growth (%)
Numeric only. Scale: %

The examples below pair each entry with its known result.
# molecule, growth, %
measured = [
    ("CSc1nnc(-c2cc3c([nH]c4ccccc43)c(-c3cccc(O)c3)n2)n1-c1ccc(C)cc1", 2.76),
    ("CC(C)=CCc1cc(O)c(O)c2oc3cc(O)cc(O)c3c(=O)c12", 84.6),
    ("COc1cc2cc(NCc3ccncc3)nc(C)c2cc1OC", 98.5),
]

// lookup growth for `COc1ccc(-c2cc3cnc4ccccc4c3oc2=O)cc1`
86.5

Can you handle `CN1CCN(c2ccc(/C=C/C(=O)c3ccc(O)cc3)cc2)CC1` next?
95.3

Can you handle `Cc1c(C(C)(C)O)cn2ncnc(Oc3ccc(NC(=O)Nc4ccc(Cl)c(C(F)(F)F)c4)cc3)c12` next?
39

Can you handle COc1cccc(NC(=O)c2sc3nc(C)c(C(O)c4ccccc4)cc3c2N)c1 (configuration not stated) next?
26.9

Can you handle `Cc1ccc(-c2nc3nc(-c4ccc(Cl)cc4)nc(N4CCCNCC4)c3o2)cc1` next?
80.2

###

system: MCF7 breast; assay: NCI-60 one-dose screen, 48 h (100 = growth as untreated, 0 = no growth, -100 = all killed); settings: 10 µM unless noted
This is part of a sample that, as a whole, favours compounds with a hit. Of some 83,000 tested, about 20% had one in any assay.
The reader will find reported growth values listed item by item below.
Numeric only. Scale: %

The examples below pair each entry with its known result.
# compound, readoutUnits, val
rows = [
    ("COc1ccc(/C=C2/C(=O)N=C3N2NC(c2ccccc2)=CN3c2ccccc2)cc1", "%", 99.9),
    ("Cc1c(C(C)(C)O)cn2ncnc(Oc3ccc(NC(=O)Nc4ccc(Cl)c(C(F)(F)F)c4)cc3)c12", "%", 25.2),
    ("CN(C)CCCn1c2nc(=O)[nH]c(=O)c-2nc2cc(Cl)c(Cl)cc21", "%", 4.93),
    ("COC(=O)c1c2c(c(C)[n+]([O-])c1C)C(=O)C(NCCN1CCOCC1)=CC2=O", "%", 55.9),
]

// lookup growth for `COC(=O)N/N=C/c1c[n+]([O-])c2ccccc2[n+]1[O-]`
93.6

Can you handle COc1cccc(C2C(C#N)=C(N)Oc3cc(OCCCCCC[P+](c4ccccc4)(c4ccccc4)c4ccccc4)ccc32)c1 (stereo not drawn) next?
-39.2
